Origin of the recorded values: ChEMBL document CHEMBL2321830

target of assay: Aldo-keto reductase family 1 member C2 (Homo sapiens, UniProt P52895)
Sequence (P52895 whole entry): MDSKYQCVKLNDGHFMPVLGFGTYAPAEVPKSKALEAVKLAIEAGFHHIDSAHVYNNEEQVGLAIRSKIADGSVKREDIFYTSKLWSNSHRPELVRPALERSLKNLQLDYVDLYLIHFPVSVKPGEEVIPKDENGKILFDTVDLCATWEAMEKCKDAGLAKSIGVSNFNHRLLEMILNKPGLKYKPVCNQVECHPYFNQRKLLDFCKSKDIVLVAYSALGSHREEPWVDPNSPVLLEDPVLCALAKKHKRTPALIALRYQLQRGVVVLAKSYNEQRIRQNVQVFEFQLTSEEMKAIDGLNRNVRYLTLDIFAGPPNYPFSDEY
experiment summary: Inhibition of human recombinant AKR1C2-mediated NADP+-dependent oxidation of S-(+)-1,2,3,4-tetrahydro-1-naphthol
Quick rule for you: IC50 under 30 µM gets 1 (yes), anything else gets 0 (no).

- COc1ccc2c(c1)c(C)c(CC(C)(C)C(=O)O)n2C(=O)c1ccc(Cl)cc1: 1 (yes)
- COc1ccc2c(c1)c1c(n2C(=O)c2ccc(Cl)cc2)CCC(C(=O)NS(C)(=O)=O)C1 (centres undefined): 0 (no)
- COc1ccc2c(c1)c(CC(=O)NS(C)(=O)=O)c(C)n2C(=O)c1ccc(Cl)cc1: 0 (no)
- COc1ccc2c(c1)c(CC(=O)NS(=O)(=O)c1ccc(C)cc1)cn2C(=O)c1ccc(Cl)cc1: 0 (no)
- COc1ccc2c(c1)c(CC(=O)NS(=O)(=O)c1ccc(C(C)C)cc1)cn2C(=O)c1ccc(Cl)cc1: 1 (yes)
- COc1ccc2c(c1)c(CC(=O)O)c(C)n2C(=O)c1cccc(C(F)(F)F)c1: 1 (yes)
- CCC(=O)Cc1cn(C(=O)OC)c2ccc(OC)cc12: 0 (no)
- COc1ccc(C(=O)n2c(C)c(CC(=O)O)c3cc(OC)ccc32)cc1: 0 (no)
- COc1ccc2c(c1)c(C)c(CCC(=O)NS(=O)(=O)c1ccc(C(C)=O)cc1)n2C(=O)c1ccc(Cl)cc1: 1 (yes)

---

Measured IC50, listed per entry for reference.
target of assay: Prostaglandin G/H synthase 2 (Mus musculus, UniProt Q05769)
Sequence (Q05769 whole entry): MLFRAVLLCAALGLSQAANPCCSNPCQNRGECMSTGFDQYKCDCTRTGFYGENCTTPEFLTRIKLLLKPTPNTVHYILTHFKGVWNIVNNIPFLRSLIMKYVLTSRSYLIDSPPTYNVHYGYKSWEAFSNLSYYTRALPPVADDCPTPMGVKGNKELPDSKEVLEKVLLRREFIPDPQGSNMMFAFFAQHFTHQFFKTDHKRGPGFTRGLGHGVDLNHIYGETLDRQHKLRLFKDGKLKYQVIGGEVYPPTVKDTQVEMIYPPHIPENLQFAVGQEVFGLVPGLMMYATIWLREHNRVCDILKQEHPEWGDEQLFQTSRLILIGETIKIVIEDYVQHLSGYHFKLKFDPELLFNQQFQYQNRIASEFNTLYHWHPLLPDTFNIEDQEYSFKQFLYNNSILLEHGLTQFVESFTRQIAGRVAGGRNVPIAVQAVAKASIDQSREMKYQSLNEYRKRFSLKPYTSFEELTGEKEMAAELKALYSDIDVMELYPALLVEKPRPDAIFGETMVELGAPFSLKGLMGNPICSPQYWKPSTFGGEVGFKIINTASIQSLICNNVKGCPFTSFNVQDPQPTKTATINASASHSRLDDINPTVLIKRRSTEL
reported property: IC50

- CCc1c(CCC(=O)O)n(C(=O)c2ccc(Cl)cc2)c2ccc(OC)cc12: 7 µM
- COc1ccc2c(c1)c(CC(=O)O)cn2C(=O)c1ccc(Cl)cc1: 3.27 µM

---

pIC50: −log10 of the molar value.
// endpoint pIC50 / system Prostaglandin G/H synthase 1 (Ovis aries, UniProt P05979)
reported property: pIC50

- COc1ccc2c(c1)c(CC(=O)O)cn2C(=O)c1ccc(Cl)cc1: 4.82
- Cc1c(CC(=O)O)c2cc(F)ccc2n1C(=O)c1ccc(Cl)cc1: 6.31

---

target of assay: UniProt:P52895
experiment summary: Inhibition of human recombinant AKR1C2-mediated NADP+-dependent oxidation of S-(+)-1,2,3,4-tetrahydro-1-naphthol
Measured log10(IC50), listed per entry for reference.
reported property: log10(IC50) (log10 of the value in µM)

- COc1ccc2c(c1)c(C)c(CCC(=O)NS(=O)(=O)c1ccc(C)cc1)n2C(=O)c1ccc(Cl)cc1: 1.09
- Cc1c(CC(=O)O)c2cc(F)ccc2n1C(=O)c1ccc(Cl)cc1: 0.79
- COc1ccc2c(c1)c(CC(=O)NS(=O)(=O)c1ccc(C(F)(F)F)cc1)cn2C(=O)c1ccc(Cl)cc1: 1.58
- COc1ccc2c(c1)c(CC(=O)NS(=O)(=O)c1ccc(C(C)=O)cc1)cn2C(=O)c1ccc(Cl)cc1: 1.24
- COc1ccc2[nH]c(C)c(CC(=O)O)c2c1: 2.00
- COC(=O)Cc1c(C)n(C(=O)c2ccc(C)cc2)c2ccc(OC)cc12: 1.64
- COc1ccc2c(c1)c(CC(=O)NS(=O)(=O)c1ccccc1C)cn2C(=O)c1ccc(Cl)cc1: 1.18
- COc1ccc2c(c1)c(CC(=O)NS(=O)(=O)c1ccc3ccccc3c1)cn2C(=O)c1ccc(Cl)cc1: 1.23

---

target of assay: Aldo-keto reductase family 1 member C3 (Homo sapiens)
Sequence (P42330 whole entry): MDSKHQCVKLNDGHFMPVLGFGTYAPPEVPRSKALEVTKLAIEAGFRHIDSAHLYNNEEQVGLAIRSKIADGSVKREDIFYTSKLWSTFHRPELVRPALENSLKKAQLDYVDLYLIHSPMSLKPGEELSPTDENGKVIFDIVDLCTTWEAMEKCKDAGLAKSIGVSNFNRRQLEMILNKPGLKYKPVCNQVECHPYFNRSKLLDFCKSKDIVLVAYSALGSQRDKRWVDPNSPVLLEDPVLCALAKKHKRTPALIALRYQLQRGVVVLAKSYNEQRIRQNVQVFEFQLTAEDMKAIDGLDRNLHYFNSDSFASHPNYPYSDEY
experiment summary: Inhibition of human recombinant AKR1C3-mediated NADP+-dependent oxidation of S-(+)-1,2,3,4-tetrahydro-1-naphthol
pIC50: −log10 of the molar value.
reported property: pIC50

* COc1ccc2c(c1)c(CC(=O)NS(=O)(=O)c1ccc3ccccc3c1)cn2C(=O)c1ccc(Cl)cc1 | 5.92
* COc1ccc(S(=O)(=O)NC(=O)Cc2cn(C(=O)c3ccc(Cl)cc3)c3ccc(OC)cc23)cc1 | 5.24
* COc1ccc2c(c1)c(C)c(CC(C)C(=O)NS(C)(=O)=O)n2C(=O)c1ccc(Cl)cc1 (stereo not given) | 5.26
* COc1ccc2c(c1)c(CC(=O)NS(C)(=O)=O)cn2C(=O)c1ccc(Cl)cc1 | 4.92
* Cc1c(CC(=O)O)c2cc(F)ccc2n1C(=O)c1ccc(Cl)cc1 | 6.60
* COc1ccc2c(c1)c(CC(=O)NS(=O)(=O)c1ccccc1C)cn2C(=O)c1ccc(Cl)cc1 | 5.05
* COc1ccc2c(c1)c(CC(=O)NS(=O)(=O)c1ccc(Cl)s1)cn2C(=O)c1ccc(Cl)cc1 | 5.43
* COc1ccc2c(c1)c(C)c(CCC(=O)NS(=O)(=O)c1ccc(C(C)=O)cc1)n2C(=O)c1ccc(Cl)cc1 | 5.58
* COc1ccc2c(c1)c(CC(=O)NS(=O)(=O)c1ccc(C(F)(F)F)cc1)cn2C(=O)c1ccc(Cl)cc1 | 5.68
* COC(=O)Cc1c(C)n(C(=O)c2ccc(OC)cc2)c2ccc(OC)cc12 | 5.12

---

Measured IC50, listed per entry for reference.
target of assay: Aldo-keto reductase family 1 member C3 (Homo sapiens, UniProt P42330)
experiment summary: Inhibition of human recombinant AKR1C3-mediated NADP+-dependent oxidation of S-(+)-1,2,3,4-tetrahydro-1-naphthol
reported property: IC50 (µM)

- COc1ccc2c(c1)c(CC(=O)O)cn2C(=O)c1ccc(F)cc1: 4.96
- COc1ccc2c(c1)c1c(n2C(=O)c2cccc(C(F)(F)F)c2)CCC(C(=O)O)C1 (stereo not drawn): 0.279
- COc1ccc2c(c1)c(CC(=O)NS(=O)(=O)c1cc(C(F)(F)F)ccc1C(F)(F)F)cn2C(=O)c1ccc(Cl)cc1: 1.94
- COc1ccc(C(=O)n2c(C)c(CC(=O)O)c3cc(OC)ccc32)cc1: 0.14
- COc1ccc2c(c1)c1c(n2C(=O)c2ccc(Cl)cc2)CC(C(=O)O)CC1 (stereo not drawn): 0.34
- COc1ccc2c(c1)c(C)c(CCC(=O)NS(=O)(=O)c1ccc(C)cc1)n2C(=O)c1ccc(Cl)cc1: 3.11
- COc1ccc2c(c1)c(CC(=O)NS(=O)(=O)c1ccc(OC(F)(F)F)cc1)cn2C(=O)c1ccc(Cl)cc1: 2.65
- CCC(=O)Cc1cn(C(=O)O)c2ccc(OC)cc12: 2.4
- COc1ccc2c(c1)c(C)c(CCC(=O)NS(=O)(=O)c1ccc(C(C)C)cc1)n2C(=O)c1ccc(Cl)cc1: 4.69
- COc1ccc2c(c1)c(CC(=O)NS(=O)(=O)c1ccc(Br)cc1)cn2C(=O)c1ccc(Cl)cc1: 3.97
- COc1ccc2c(c1)c(C)c(CCC(=O)NS(=O)(=O)c1ccc(C(F)(F)F)cc1)n2C(=O)c1ccc(Cl)cc1: 1.11
- COc1ccc2c(c1)c(CC(=O)NS(=O)(=O)c1ccc(C(C)=O)cc1)cn2C(=O)c1ccc(Cl)cc1: 2.09
- COC(=O)Cc1c(C)n(C(=O)c2ccc(C)cc2)c2ccc(OC)cc12: 7.54
- Cc1c(CC(=O)O)c2cc(F)ccc2n1C(=O)c1cccc(C(F)(F)F)c1: 2.23
- COc1ccc2c(c1)c(C)c(CC(C)C(=O)O)n2C(=O)c1ccc(Cl)cc1 (racemic): 0.29
- COC(=O)Cc1c(C)n(C(=O)c2ccc(C(F)(F)F)cc2)c2ccc(OC)cc12: 15.7
- COc1ccc2c(c1)c(CC(=O)O)c(C)n2C(=O)c1cccc(C(F)(F)F)c1: 2.44
- COc1ccc2c(c1)c(CC(=O)NS(=O)(=O)c1ccc(Oc3ccccc3)cc1)cn2C(=O)c1ccc(Cl)cc1: 2.52
- COc1ccc2c(c1)c(CC(=O)O)cn2C(=O)c1ccc(C(F)(F)F)cc1: 1.08
- COc1ccc2c(c1)c(C)c(CCC(=O)NS(=O)(=O)c1ccc3ccccc3c1)n2C(=O)c1ccc(Cl)cc1: 2.54
- COc1ccc2c(c1)cc(C)n2C(=O)c1ccc(Cl)cc1: 3.56
- COc1ccc2c(c1)c(CC(=O)O)cn2C(=O)c1cccc(C(F)(F)F)c1: 5.21
- COc1ccc2c(c1)c(C)c(CC(C)(C)C(=O)O)n2C(=O)c1ccc(Cl)cc1: 0.12
- COc1ccc2c(c1)c(CC(=O)O)c(C)n2C(=O)c1ccc(F)cc1: 0.71
- COc1ccc2c(c1)c(C)c(CCC(=O)NS(=O)(=O)c1ccc(OC(F)(F)F)cc1)n2C(=O)c1ccc(Cl)cc1: 2.5
- O=C(O)Cc1cn(C(=O)c2ccc(Cl)cc2)c2ccc(F)cc12: 0.5
- COC(=O)Cc1c(C)n(C(=O)c2ccc(Cl)cc2)c2ccc(OC)cc12: 5.67
- COc1ccc2c(c1)c(CC(=O)NS(=O)(=O)c1ccc(C(C)C)cc1)cn2C(=O)c1ccc(Cl)cc1: 6.34
- COc1ccc2c(c1)c1c(n2C(=O)c2ccc(Cl)cc2)CCC(C(=O)NS(C)(=O)=O)C1 (stereo not drawn): 5.07
- COc1ccc2c(c1)c(CC(=O)NS(=O)(=O)c1ccc(C#N)cc1)cn2C(=O)c1ccc(Cl)cc1: 1.11
- COC(=O)Cc1cn(C(=O)c2ccc(Cl)cc2)c2ccc(OC)cc12: 11.3
- Cc1c(CCC(=O)O)c2cc(F)ccc2n1C(=O)c1ccc(Cl)cc1: 0.29
- COc1ccc2c(c1)c(CC(=O)NS(=O)(=O)c1ccc(F)cc1)cn2C(=O)c1ccc(Cl)cc1: 7.86
- COc1ccc2c(c1)c(CC(=O)NS(C)(=O)=O)c(C)n2C(=O)c1ccc(Cl)cc1: 2.24
- COc1ccc2c(c1)c(CC(=O)NS(=O)(=O)c1ccc(C)cc1)cn2C(=O)c1ccc(Cl)cc1: 12.4
- CCC(=O)Cc1cn(C(=O)OC)c2ccc(OC)cc12: 22.8
- COc1ccc2c(c1)c(C)c(CCC(=O)NS(=O)(=O)c1ccccc1C)n2C(=O)c1ccc(Cl)cc1: 3.25
